Molecular target: T1, Human SIRPαV2 (CAA71403.1), Extracellular Domain + His-Tag (human, UniProt P78324 31-373)
T1 construct: also called huSIRPαV2; hSIRPαV2; not shown: His-Tag
T1 sequence (P78324 other isoform, or with tags, fused parts or gaps): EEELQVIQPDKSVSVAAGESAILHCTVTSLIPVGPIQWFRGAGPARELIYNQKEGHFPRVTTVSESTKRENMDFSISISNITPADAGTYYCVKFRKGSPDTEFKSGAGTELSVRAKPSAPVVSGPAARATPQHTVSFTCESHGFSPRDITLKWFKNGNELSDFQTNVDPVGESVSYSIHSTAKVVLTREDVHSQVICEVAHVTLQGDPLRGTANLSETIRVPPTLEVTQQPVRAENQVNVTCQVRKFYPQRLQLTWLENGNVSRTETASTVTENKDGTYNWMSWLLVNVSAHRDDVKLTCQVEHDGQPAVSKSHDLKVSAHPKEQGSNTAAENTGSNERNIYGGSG
Test: SPR, antibody captured on Protein A/G, ECD-His analyte, 1:1 fit
Entries annotated with measured koff
Form entry: value (s⁻¹) — number only.

Some binders with recorded koff:
| binder | unitName | koff |
| --- | --- | --- |
| Antibody A9 (antibody, human IgG1, kappa, L234A L235A, V domains shown) VH: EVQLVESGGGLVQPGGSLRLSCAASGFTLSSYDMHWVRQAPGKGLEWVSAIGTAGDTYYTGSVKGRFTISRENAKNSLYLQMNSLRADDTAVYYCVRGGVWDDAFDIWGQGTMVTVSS VL: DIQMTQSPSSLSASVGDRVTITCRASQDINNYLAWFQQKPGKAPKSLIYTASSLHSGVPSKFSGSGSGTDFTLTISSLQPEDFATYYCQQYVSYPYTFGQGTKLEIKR | s⁻¹ | 0.00652 |
| Antibody E19 (antibody, human IgG1, kappa, L234A L235A, V domains shown) VH: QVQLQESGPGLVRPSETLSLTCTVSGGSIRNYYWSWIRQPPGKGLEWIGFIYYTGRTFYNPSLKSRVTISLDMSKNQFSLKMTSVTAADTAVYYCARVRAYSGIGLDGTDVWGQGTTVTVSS VL: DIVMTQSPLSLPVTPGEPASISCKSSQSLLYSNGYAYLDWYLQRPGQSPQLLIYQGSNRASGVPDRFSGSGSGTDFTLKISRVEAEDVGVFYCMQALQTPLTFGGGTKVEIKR | s⁻¹ | 0.000399 |
| Antibody E6 (antibody, human IgG1, kappa, L234A L235A, V domains shown) VH: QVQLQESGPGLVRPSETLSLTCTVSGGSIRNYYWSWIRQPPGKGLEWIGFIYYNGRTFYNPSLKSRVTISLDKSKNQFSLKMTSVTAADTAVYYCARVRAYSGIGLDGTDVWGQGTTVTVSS VL: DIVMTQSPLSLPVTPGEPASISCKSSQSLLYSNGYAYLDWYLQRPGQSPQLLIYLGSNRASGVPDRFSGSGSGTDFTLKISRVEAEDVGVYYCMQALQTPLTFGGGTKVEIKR | s⁻¹ | 0.000375 |
| Antibody E7 (antibody, human IgG1, kappa, L234A L235A, V domains shown) VH: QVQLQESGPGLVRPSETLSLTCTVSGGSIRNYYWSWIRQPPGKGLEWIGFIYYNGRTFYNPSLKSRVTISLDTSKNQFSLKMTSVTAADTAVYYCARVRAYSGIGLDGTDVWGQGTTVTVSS VL: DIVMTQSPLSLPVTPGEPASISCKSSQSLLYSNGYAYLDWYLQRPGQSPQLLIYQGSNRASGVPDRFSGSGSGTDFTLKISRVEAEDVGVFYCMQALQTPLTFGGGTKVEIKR | s⁻¹ | 0.000552 |
| Antibody E5 (antibody, human IgG1, kappa, L234A L235A, V domains shown) VH: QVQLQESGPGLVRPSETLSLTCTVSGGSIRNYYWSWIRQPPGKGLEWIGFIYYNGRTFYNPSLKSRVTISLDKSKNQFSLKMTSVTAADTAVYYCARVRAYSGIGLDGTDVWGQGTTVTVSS VL: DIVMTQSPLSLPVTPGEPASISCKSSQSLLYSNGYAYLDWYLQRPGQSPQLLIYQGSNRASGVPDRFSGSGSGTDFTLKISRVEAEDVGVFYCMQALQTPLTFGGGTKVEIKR | s⁻¹ | 0.000355 |
| Antibody A8 (antibody, human IgG1, kappa, L234A L235A, V domains shown) VH: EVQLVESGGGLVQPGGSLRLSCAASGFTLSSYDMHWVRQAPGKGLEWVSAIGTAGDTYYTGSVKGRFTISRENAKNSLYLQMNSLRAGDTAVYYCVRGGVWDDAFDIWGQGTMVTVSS VL: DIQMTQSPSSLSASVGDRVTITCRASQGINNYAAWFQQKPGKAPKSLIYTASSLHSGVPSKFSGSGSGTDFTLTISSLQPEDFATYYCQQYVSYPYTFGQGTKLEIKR | s⁻¹ | 0.0162 |
| Antibody E10 (antibody, human IgG1, kappa, L234A L235A, V domains shown) VH: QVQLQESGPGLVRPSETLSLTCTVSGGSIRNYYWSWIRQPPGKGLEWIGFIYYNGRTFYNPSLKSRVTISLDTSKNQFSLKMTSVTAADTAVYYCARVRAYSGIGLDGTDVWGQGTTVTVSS VL: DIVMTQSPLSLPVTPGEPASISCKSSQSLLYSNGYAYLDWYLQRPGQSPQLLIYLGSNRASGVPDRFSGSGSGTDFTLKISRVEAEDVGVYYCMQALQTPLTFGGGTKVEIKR | s⁻¹ | 0.000596 |
| Antibody A2 (antibody, human IgG1, kappa, L234A L235A, V domains shown) VH: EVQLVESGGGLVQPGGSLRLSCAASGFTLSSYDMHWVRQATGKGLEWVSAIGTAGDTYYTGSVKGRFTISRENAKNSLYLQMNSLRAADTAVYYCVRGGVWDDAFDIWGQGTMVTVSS VL: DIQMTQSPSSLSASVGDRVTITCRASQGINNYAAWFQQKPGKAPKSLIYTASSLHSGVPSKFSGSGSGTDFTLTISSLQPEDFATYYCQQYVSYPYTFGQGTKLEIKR | s⁻¹ | 0.0184 |
| Antibody E9 (antibody, human IgG1, kappa, L234A L235A, V domains shown) VH: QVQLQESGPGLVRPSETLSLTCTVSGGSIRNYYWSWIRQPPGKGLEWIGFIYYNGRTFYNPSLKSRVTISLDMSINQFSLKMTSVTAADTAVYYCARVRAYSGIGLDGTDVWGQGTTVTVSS VL: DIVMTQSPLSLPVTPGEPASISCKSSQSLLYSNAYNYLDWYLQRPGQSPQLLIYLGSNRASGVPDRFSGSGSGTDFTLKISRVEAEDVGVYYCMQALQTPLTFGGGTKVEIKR | s⁻¹ | 0.000548 |

Please examine the following record next.
Task item: State the recorded koff for this entry: Antibody E8 (antibody, human IgG1, kappa, L234A L235A, V domains shown) VH: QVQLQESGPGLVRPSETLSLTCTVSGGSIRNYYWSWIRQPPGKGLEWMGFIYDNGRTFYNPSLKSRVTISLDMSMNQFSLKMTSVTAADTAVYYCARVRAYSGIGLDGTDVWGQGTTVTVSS VL: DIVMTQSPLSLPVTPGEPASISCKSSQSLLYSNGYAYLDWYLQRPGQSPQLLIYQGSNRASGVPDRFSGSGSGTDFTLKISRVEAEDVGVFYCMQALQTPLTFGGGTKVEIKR
Reply: 0.000236

Cited source: patent US20230012273A1
